meta.source: ChEMBL document CHEMBL3988442

Catalogue of Percent Effect values
target: Ubiquitin-activating enzyme e1, putative (Leishmania donovani (strain BPK282A1)) (UniProt E9BSI1); experiment: Leishmania donovani Ubiquitin Activating Enzyme (LdE1); type: functional; parameters: scale not given: direction of the effect not stated beside the values; details: 30 µM
Sequence (E9BSI1 as listed by the source): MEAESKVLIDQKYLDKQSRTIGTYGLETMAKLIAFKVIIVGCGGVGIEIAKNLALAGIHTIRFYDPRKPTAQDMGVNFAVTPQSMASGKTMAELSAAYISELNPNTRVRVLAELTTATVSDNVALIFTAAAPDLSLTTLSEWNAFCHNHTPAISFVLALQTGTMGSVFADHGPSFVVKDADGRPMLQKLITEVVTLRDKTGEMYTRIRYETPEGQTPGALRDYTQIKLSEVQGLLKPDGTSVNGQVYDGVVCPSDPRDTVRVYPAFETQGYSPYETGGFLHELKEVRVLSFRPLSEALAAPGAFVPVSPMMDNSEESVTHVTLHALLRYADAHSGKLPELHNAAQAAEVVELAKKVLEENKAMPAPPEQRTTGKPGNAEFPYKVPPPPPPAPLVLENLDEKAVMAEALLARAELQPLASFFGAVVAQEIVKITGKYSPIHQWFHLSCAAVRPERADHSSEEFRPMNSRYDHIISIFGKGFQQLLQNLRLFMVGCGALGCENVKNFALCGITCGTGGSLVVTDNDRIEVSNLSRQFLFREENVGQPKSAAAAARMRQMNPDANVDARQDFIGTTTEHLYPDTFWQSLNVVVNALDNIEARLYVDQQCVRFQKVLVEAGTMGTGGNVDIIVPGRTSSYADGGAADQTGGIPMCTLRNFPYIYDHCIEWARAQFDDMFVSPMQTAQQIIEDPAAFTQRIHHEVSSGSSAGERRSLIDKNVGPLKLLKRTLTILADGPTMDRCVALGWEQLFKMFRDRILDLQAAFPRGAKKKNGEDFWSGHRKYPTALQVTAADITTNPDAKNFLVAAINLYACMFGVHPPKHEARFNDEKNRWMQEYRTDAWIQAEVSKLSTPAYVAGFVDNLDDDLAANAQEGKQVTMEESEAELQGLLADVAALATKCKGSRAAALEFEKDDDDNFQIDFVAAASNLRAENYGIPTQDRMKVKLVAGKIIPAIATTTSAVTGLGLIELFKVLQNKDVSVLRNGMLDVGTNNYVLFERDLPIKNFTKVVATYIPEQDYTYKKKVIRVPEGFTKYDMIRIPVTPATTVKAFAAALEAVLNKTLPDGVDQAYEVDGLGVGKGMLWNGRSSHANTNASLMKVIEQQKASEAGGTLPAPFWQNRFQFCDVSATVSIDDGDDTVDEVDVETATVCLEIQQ
Results with a measured potency or affinity are listed apart.
Property Label: Percent Effect (%)

compound="Cc1ncsc1C(=O)NCCn1nc(C2CCNC2)c2cccnc21 (stereo not drawn)" test_result=-2.67
compound=Cc1cn2nc(N3CCCN(Cc4noc(C)n4)CC3)sc2n1 test_result=11.4
compound=CN1CCC(NC(=O)NCc2csc(Br)c2)CC1 test_result=13.5
compound=Cc1nnc([C@@H]2CC[C@@H]3[C@@H](CCN3S(=O)(=O)c3cccnc3)O2)o1 test_result=10.8
compound=CCn1ccnc1CN1CCN(CCOc2ccccc2OC)CC1 test_result=0
compound="CS(=O)(=O)NCC1CCCN(Cc2ccc(F)c3cccnc23)C1 (stereo not drawn)" test_result=2.6
compound=CNC(=O)C1CCN(C(=O)c2ccn(-c3ccc(F)cc3)n2)CC1 test_result=16.2
compound=COc1ccc(C(=O)N(Cc2cnn(C)c2)C(C)C)cc1Br test_result=0
